- System: TO-N3 (biotin conjugate)
- ASSAY DETAILS: pull-down binding Z-score (relative to library population); higher = stronger binding
- SETTINGS: RNA library: Library-2
pull-down binding Z-score by entry:
Would you mind answering with just the numeric figure?

# CHAIN, pull-down binding Z-score
rows = [
    ("GGCCCGAGUGAUGGGCU [IAV_invivo_NA_6_Motif_9+IAV_invivo_NA_6_Motif_9]", -0.27),
    ("AAUAACUUACCUUUUAAGUUGACAUGUGCAACUACUAGACAAGUUGUU", -1.21),
    ("GACAUGCUCUGACUCCCCUGAUGUC [hsa-mir-6852]", 0.286),
    ("AGCUGUGAAAGUCCUAGCU [hsa-mir-1256]", 2.17),
    ("AUGAACCACAAAUCAU [DMSMaPseq_invitro_SARS-CoV-2_Motif_444]", 0.254),
]

Next up:
Ask: Can you share its pull-down binding Z-score? I mean this sequence: `GAGACAUUUAAACUGUCUU`
Result: -0.91
